# run-description: pH of 3% solution of the finished product in H2O
# Format: physicochemical
# settings: 3% solution in H2O
Kindly supply the reported pH values for the records listed here.

These solved cases illustrate the format of a correct answer.
* CNC.Cc1cc(Cl)ccc1OC(C)C(=O)O (stereo not shown) [Example 3, MCPP/DMA Salt] | 5.8-6.3
* CC(Oc1ccc(Cl)cc1Cl)C(=O)O.CNC (stereo not shown) [Example 4, 2,4-DP/DMA Salt] | 5.8-6.5
* CNC.Cc1cc(Cl)ccc1OCC(=O)O [Example 1, MCPA/DMA Salt] | 5.5-6.5

We now examine a further compound.
Quick check: pH of CNC.COc1c(Cl)ccc(Cl)c1C(=O)O [Example 2, Dicamba/DMA Salt] ? 5.5-6.5

---

# run-description: Hygroscopicity of the finished product
# Type: physicochemical
# settings: dried solid product
assay-metric: hygroscopicity of product

- CNC.COc1c(Cl)ccc(Cl)c1C(=O)O [Example 2, Dicamba/DMA Salt]: extremely hydroscopic
- CNC.Cc1cc(Cl)ccc1OCC(=O)O [Example 1, MCPA/DMA Salt]: extremely hydroscopic
- CNC.Cc1cc(Cl)ccc1OC(C)C(=O)O (stereo not shown) [Example 3, MCPP/DMA Salt]: extremely hydroscopic
